pIC50, WDR5 (Homo sapiens, UniProt P61964), per-entry values.
pIC50: −log10 of the molar value.

Molecule | Tested on | pIC50
C[C@@H]1CN(c2ccc(-c3c(F)cc(N4CCN(C)[C@@H](C)C4)c(NC(=O)c4ccc(F)cc4C(F)F)c3F)cn2)CCO1 [Example 177] | WDR5 (Homo sapiens, UniProt P61964) | 7.64
COc1cc(N2CCC=C(c3c(F)cc(N4CCN(C)[C@@H](C)C4)c(NC(=O)c4c[nH]c(=O)cc4C(F)(F)F)c3F)C2)ncn1 [Example 68] | WDR5 (Homo sapiens, UniProt P61964) | 7.71
C[C@H]1CN(c2cc(F)c(-c3ccc4c(c3)OCO4)c(F)c2NC(=O)c2c[nH]c(=O)cc2C(F)(F)F)CCN1C [Example 184] | WDR5 (Homo sapiens, UniProt P61964) | 7.59
C[C@@H]1CN(c2ccc(-c3c(F)cc(N4C[C@@H](C)N(C)[C@@H](C)C4)c(NC(=O)c4c[nH]c(=O)cc4C(F)(F)F)c3F)cn2)CCO1 [Example 168] | WDR5 (Homo sapiens, UniProt P61964) | 7.78
C[C@@H]1CN(c2nccc(-c3c(F)cc(N4C[C@@H](C)N(C)[C@@H](C)C4)c(NC(=O)c4c[nH]c(=O)cc4C(F)(F)F)c3F)n2)C[C@H](C)O1 [Example 77] | WDR5 (Homo sapiens, UniProt P61964) | 8.00
C[C@@H]1CN(c2cc(F)c(-c3cnc(N(C)C)c(F)c3)c(F)c2NC(=O)c2c[nH]c(=O)cc2C(F)(F)F)C[C@H](C)N1C [Example 63] | WDR5 (Homo sapiens, UniProt P61964) | 7.89
C[C@@H]1CN(c2cc(F)c(C3=CCN(c4ncc(F)cn4)C3)c(F)c2NC(=O)c2c[nH]c(=O)cc2C(F)(F)F)C[C@H](C)N1C [Example 147] | WDR5 (Homo sapiens, UniProt P61964) | 7.71
C[C@@H]1CN(c2ccc(-c3c(F)cc(N4C[C@@H](C)N(C)[C@@H](C)C4)c(NC(=O)c4c[nH]c(=O)cc4C(F)F)c3F)cn2)C[C@H](C)O1 [Example 191] | WDR5 (Homo sapiens, UniProt P61964) | 7.97
C[C@@H]1CN(c2ncc(-c3c(F)cc(N4C[C@@H](C)N(C)[C@@H](C)C4)c(NC(=O)c4c[nH]c(=O)cc4C(F)(F)F)c3F)cn2)C[C@H](C)O1 [Example 8] | WDR5 (Homo sapiens, UniProt P61964) | 7.67
C[C@H]1CN(c2cc(F)c(C3=CCN(C(=O)OC4(C)CCC4)CC3)c(F)c2NC(=O)c2c[nH]c(=O)cc2C(F)F)CCN1C [Example 92] | WDR5 (Homo sapiens, UniProt P61964) | 7.81
C[C@@H]1CN(c2cc(F)c(C3=CCCN(C(=O)OC4CC(F)(F)C4)C3)c(F)c2NC(=O)c2c[nH]c(=O)cc2C(F)(F)F)C[C@H](C)N1C [Example 20] | WDR5 (Homo sapiens, UniProt P61964) | 7.85
C[C@@H]1CN(c2ccc(-c3c(F)cc(N4CCN(C)[C@@H](C)C4)c(NC(=O)c4ccc(F)cc4C(F)F)c3F)cn2)C[C@H](C)O1 [Example 178] | WDR5 (Homo sapiens, UniProt P61964) | 7.71
C[C@@H]1CN(c2cc(F)c(-c3cnc(N4CCO[C@@H](C)C4)nc3)c(F)c2NC(=O)c2cn(C)c(=O)cc2C(F)(F)F)C[C@H](C)N1C [Example 12, formic Acid] | WDR5 (Homo sapiens, UniProt P61964) | 7.61
C[C@@H]1CN(c2nccc(-c3c(F)cc(N4CCN(C)[C@@H](C)C4)c(NC(=O)c4cn(C)c(=O)cc4C(F)(F)F)c3F)n2)C[C@H](C)O1 [Example 56] | WDR5 (Homo sapiens, UniProt P61964) | 7.44
C[C@H]1CN(c2cc(F)c(C3=CCCN(c4ncc(C#N)s4)C3)c(F)c2NC(=O)c2c[nH]c(=O)cc2C(F)F)CCN1C [Example 99] | WDR5 (Homo sapiens, UniProt P61964) | 7.83
C[C@@H]1CN(c2cc(F)c(-c3cnc(N4CCOCC4)nc3)c(F)c2NC(=O)c2c[nH]c(=O)cc2C(F)F)C[C@H](C)N1C [Example 41] | WDR5 (Homo sapiens, UniProt P61964) | 8.15
C[C@@H]1CN(c2ccc(-c3c(F)cc(N4CCN(C)[C@@H](C)C4)c(NC(=O)c4c[nH]c(=O)cc4C(F)(F)F)c3F)cn2)C[C@H](C)O1 [Example 170] | WDR5 (Homo sapiens, UniProt P61964) | 7.81
C[C@@H]1CN(c2ccc(-c3c(F)cc(N4CCN(C)[C@@H](C)C4)c(NC(=O)c4ccc(F)cc4C(F)(F)F)c3F)cn2)C[C@H](C)O1 [Example 176] | WDR5 (Homo sapiens, UniProt P61964) | 7.70
